Please respond with reported MCV for every item in the list.
# Organism: Rattus norvegicus
# test-details: Open TG-GATES - Regimen: Daily Repeat
# Assay type: toxicity, organism-based, Sprague-Dawley
# Set-up: regimen Daily Repeat, gender Male, age 6 weeks
# experimental-parameters: in vivo, po, 300 mg/kg, […], tissue Blood, route gavage, dose level Middle, time 7 day
Your answer is read as fL, so omit the unit and give the number.

Challenge: So what does the record say about MCV for COC1=CC(=O)C[C@@H](C)[C@]12Oc1c(Cl)c(OC)cc(OC)c1C2=O [GRISEOFULVIN] ?
Response given: 62.9

Challenge: Please give the measured MCV for this molecule: CCOc1ccc(NC(=O)CC(C)O)cc1 (stereo not given) [BUCETIN]
Response given: 62.5

Challenge: // lookup MCV for CCOC(=O)CCC(=O)O[C@H]1[C@H](O[C@@H]2[C@@H](C)[C@H](O[C@H]3C[C@@](C)(OC)[C@@H](O)[C@H](C)O3)[C@@H](C)C(=O)O[C@H](CC)[C@@](C)(O)[C@H](O)[C@@H](C)C(=O)[C@H](C)C[C@@]2(C)O)O[C@H](C)C[C@@H]1N(C)C [ERYTHROMYCIN ETHYLSUCCINATE]
Response given: 62.3

Challenge: Please report the recorded MCV for NC(N)=Nc1nc(CSCCC(N)=NS(N)(=O)=O)cs1 [FAMOTIDINE] .
Response given: 61.7

Challenge: Which MCV reading was recorded for the molecule COc1ccc2[nH]c([S+]([O-])Cc3ncc(C)c(OC)c3C)nc2c1 (stereo not given) [OMEPRAZOLE] ?
Response given: 60.8

###

# Species on record: Rattus norvegicus
# test-details: Open TG-GATES - Regimen: Single
# Assay type: toxicity, organism-based, Sprague-Dawley
# Parameters: regimen Single, gender Male, age 6 weeks
# experimental-parameters: in vivo, po, 100 mg/kg, 6 h, tissue Plasma, route gavage, dose level Low
attribute-measured: TG (mg/dL)
Just the number in mg/dL, nothing appended.

Challenge: Could you tell me which TG is on file for COC1=CC(=O)C[C@@H](C)[C@]12Oc1c(Cl)c(OC)cc(OC)c1C2=O [GRISEOFULVIN] ?
Response given: 48.6

Challenge: TG for COc1ccc2[nH]c([S+]([O-])Cc3ncc(C)c(OC)c3C)nc2c1 (centres undefined) [OMEPRAZOLE] ?
Response given: 83.4

Challenge: Please give the measured TG for this compound: CCOC(=O)CCC(=O)O[C@H]1[C@H](O[C@@H]2[C@@H](C)[C@H](O[C@H]3C[C@@](C)(OC)[C@@H](O)[C@H](C)O3)[C@@H](C)C(=O)O[C@H](CC)[C@@](C)(O)[C@H](O)[C@@H](C)C(=O)[C@H](C)C[C@@]2(C)O)O[C@H](C)C[C@@H]1N(C)C [ERYTHROMYCIN ETHYLSUCCINATE]
Response given: 63.4

Challenge: // TG lookup, key: NC(N)=Nc1nc(CSCCC(N)=NS(N)(=O)=O)cs1 [FAMOTIDINE]
Response given: 60

###

Kindly supply the reported ALT values for the records listed here.
# Organism: Rattus norvegicus
# test-details: Open TG-GATES - Regimen: Daily Repeat
# Format: toxicity, organism-based, Sprague-Dawley
# Design: regimen Daily Repeat, gender Male, age 6 weeks
# experimental-parameters: in vivo, po, 100 mg/kg, […], tissue Plasma, route gavage, dose level Low, time 14 day
Give your result in IU/L as a bare value.

Challenge: Give the measured ALT of COC1=CC(=O)C[C@@H](C)[C@]12Oc1c(Cl)c(OC)cc(OC)c1C2=O .
Response given: 35.2

Challenge: Data request, read-out ALT, for CCOC(=O)CCC(=O)O[C@H]1[C@H](O[C@@H]2[C@@H](C)[C@H](O[C@H]3C[C@@](C)(OC)[C@@H](O)[C@H](C)O3)[C@@H](C)C(=O)O[C@H](CC)[C@@](C)(O)[C@H](O)[C@@H](C)C(=O)[C@H](C)C[C@@]2(C)O)O[C@H](C)C[C@@H]1N(C)C [ERYTHROMYCIN ETHYLSUCCINATE]
Response given: 36.8

Challenge: # lookup: ALT of NC(N)=Nc1nc(CSCCC(N)=NS(N)(=O)=O)cs1
Response given: 38

Challenge: What measured ALT goes with CCOc1ccc(NC(=O)CC(C)O)cc1 (centres undefined) ?
Response given: 34.4

Every entry's value here was drawn from ChEMBL document CHEMBL3885861.
